# test_target: Acetylcholinesterase (Electrophorus electricus)
# Sequence (O42275 whole entry): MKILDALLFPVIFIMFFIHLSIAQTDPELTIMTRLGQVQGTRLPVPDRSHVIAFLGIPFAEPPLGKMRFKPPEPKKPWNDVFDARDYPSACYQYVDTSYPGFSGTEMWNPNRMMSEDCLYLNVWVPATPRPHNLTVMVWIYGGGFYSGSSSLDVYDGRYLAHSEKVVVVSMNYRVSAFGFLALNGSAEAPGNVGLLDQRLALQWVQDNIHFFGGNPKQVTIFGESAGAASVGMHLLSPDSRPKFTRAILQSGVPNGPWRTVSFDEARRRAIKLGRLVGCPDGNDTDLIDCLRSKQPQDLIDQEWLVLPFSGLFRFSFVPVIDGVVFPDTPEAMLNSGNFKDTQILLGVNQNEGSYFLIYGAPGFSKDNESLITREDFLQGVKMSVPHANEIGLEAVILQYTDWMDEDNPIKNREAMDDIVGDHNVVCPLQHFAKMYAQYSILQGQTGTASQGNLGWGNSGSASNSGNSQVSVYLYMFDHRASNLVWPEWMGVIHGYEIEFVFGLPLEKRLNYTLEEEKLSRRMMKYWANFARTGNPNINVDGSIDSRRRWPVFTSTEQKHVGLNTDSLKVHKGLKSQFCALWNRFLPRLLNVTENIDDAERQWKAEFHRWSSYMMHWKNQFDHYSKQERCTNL

# chemical_string, test_target, IC50
data = [
    ("COc1cc(/C=C/C(=O)NCCCCCCNc2c3c(nc4ccccc24)CCCC3)ccc1OCCCCCCO[N+](=O)[O-]", "Acetylcholinesterase (Electrophorus electricus)", "4.8 nM"),
    ("NCCCCCCNc1c2c(nc3ccccc13)CCCC2", "Acetylcholinesterase (Electrophorus electricus)", "23.7 nM"),
    ("COc1cc(/C=C/C(=O)NCCNc2c3c(nc4ccccc24)CCCC3)ccc1OCCCCCCO[N+](=O)[O-]", "Acetylcholinesterase (Electrophorus electricus)", "40.6 nM"),
    ("COc1cc(/C=C/C(=O)NCCCNc2c3c(nc4ccccc24)CCCC3)ccc1OCCCCO[N+](=O)[O-]", "Acetylcholinesterase (Electrophorus electricus)", "3.6 nM"),
    ("COc1cc(/C=C/C(=O)NCCCNc2c3c(nc4ccccc24)CCCC3)ccc1OCCCCCCO[N+](=O)[O-]", "Acetylcholinesterase (Electrophorus electricus)", "21.8 nM"),
    ("COc1cc(/C=C/C(=O)O)ccc1OCCCCCCO[N+](=O)[O-]", "Acetylcholinesterase (Electrophorus electricus)", "> 10000 nM"),
    ("COc1cc(/C=C/C(=O)NCCCCCCNc2c3c(nc4ccccc24)CCCC3)ccc1O", "Acetylcholinesterase (Electrophorus electricus)", "12.7 nM"),
    ("COc1cc(/C=C/C(=O)NCCCCCCCCNc2c3c(nc4ccccc24)CCCC3)ccc1O", "Acetylcholinesterase (Electrophorus electricus)", "16.9 nM"),
    ("COc1cc(/C=C/C(=O)NCCCNc2c3c(nc4ccccc24)CCCC3)ccc1OCCCO[N+](=O)[O-]", "Acetylcholinesterase (Electrophorus electricus)", "10.9 nM"),
    ("COc1cc(/C=C/C(=O)O)ccc1OCCCCO[N+](=O)[O-]", "Acetylcholinesterase (Electrophorus electricus)", "> 10000 nM"),
    ("COc1cc(/C=C/C(=O)NCCCCNc2c3c(nc4ccccc24)CCCC3)ccc1OCCCCCCO[N+](=O)[O-]", "Acetylcholinesterase (Electrophorus electricus)", "27.9 nM"),
    ("COc1cc(/C=C/C(=O)NCCCNc2c3c(nc4ccccc24)CCCC3)ccc1O", "Acetylcholinesterase (Electrophorus electricus)", "56.7 nM"),
    ("NCCNc1c2c(nc3ccccc13)CCCC2", "Acetylcholinesterase (Electrophorus electricus)", "71.4 nM"),
    ("COc1cc(/C=C/C(=O)NCCNc2c3c(nc4ccccc24)CCCC3)ccc1OCCCO[N+](=O)[O-]", "Acetylcholinesterase (Electrophorus electricus)", "19.9 nM"),
    ("NCCCCNc1c2c(nc3ccccc13)CCCC2", "Acetylcholinesterase (Electrophorus electricus)", "39.3 nM"),
    ("CCCOc1ccc(/C=C/C(=O)NCCCNc2c3c(nc4ccccc24)CCCC3)cc1OC", "Acetylcholinesterase (Electrophorus electricus)", "69.8 nM"),
    ("COc1cc(/C=C/C(=O)O)ccc1OCCO[N+](=O)[O-]", "Acetylcholinesterase (Electrophorus electricus)", "> 10000 nM"),
    ("COc1cc(/C=C/C(=O)NCCCCCCCCNc2c3c(nc4ccccc24)CCCC3)ccc1OCCCO[N+](=O)[O-]", "Acetylcholinesterase (Electrophorus electricus)", "10.1 nM"),
    ("COc1cc(/C=C/C(=O)NCCCCNc2c3c(nc4ccccc24)CCCC3)ccc1OCCCO[N+](=O)[O-]", "Acetylcholinesterase (Electrophorus electricus)", "44.3 nM"),
]

These entries and their values trace back to ChEMBL document CHEMBL2169775.
